# Test system: Mannheimia haemolytica
# RUN_DESCRIPTION: minimum inhibitory concentration (MIC)
# TEST_CONTEXT: isolate (source animal id): 221
Measured minimum inhibitory concentration of individual entries

MOLECULE	minimum inhibitory concentration
CO/N=C(\C(=O)N[C@@H]1C(=O)N2C(C(=O)O)=C(CSC(=O)c3ccco3)CS[C@H]12)c1csc(N)n1	≤ 0.25 µg/mL
NC[C@@H]1O[C@H](O[C@H]2[C@@H](O)[C@H](O[C@@H]3[C@@H](O)[C@H](N)C[C@H](N)[C@H]3O[C@H]3O[C@H](CN)[C@@H](O)[C@H](O)[C@H]3N)O[C@@H]2CO)[C@H](N)[C@@H](O)[C@@H]1O	> 32 µg/mL
CNC(C)C1CCC(N)C(OC2C(N)CC(N)C(OC3OCC(C)(O)C(NC)C3O)C2O)O1 (centres undefined)	4 µg/mL
CN1C[C@@H]2C[C@H]1CN2c1cc2c(cc1F)c(=O)c(C(=O)O)cn2C1CC1	≤ 0.12 µg/mL
